EXPERIMENTAL_SYSTEM: FLT-3 (Homo sapiens, UniProt P36888)
Sequence (P36888 27-993): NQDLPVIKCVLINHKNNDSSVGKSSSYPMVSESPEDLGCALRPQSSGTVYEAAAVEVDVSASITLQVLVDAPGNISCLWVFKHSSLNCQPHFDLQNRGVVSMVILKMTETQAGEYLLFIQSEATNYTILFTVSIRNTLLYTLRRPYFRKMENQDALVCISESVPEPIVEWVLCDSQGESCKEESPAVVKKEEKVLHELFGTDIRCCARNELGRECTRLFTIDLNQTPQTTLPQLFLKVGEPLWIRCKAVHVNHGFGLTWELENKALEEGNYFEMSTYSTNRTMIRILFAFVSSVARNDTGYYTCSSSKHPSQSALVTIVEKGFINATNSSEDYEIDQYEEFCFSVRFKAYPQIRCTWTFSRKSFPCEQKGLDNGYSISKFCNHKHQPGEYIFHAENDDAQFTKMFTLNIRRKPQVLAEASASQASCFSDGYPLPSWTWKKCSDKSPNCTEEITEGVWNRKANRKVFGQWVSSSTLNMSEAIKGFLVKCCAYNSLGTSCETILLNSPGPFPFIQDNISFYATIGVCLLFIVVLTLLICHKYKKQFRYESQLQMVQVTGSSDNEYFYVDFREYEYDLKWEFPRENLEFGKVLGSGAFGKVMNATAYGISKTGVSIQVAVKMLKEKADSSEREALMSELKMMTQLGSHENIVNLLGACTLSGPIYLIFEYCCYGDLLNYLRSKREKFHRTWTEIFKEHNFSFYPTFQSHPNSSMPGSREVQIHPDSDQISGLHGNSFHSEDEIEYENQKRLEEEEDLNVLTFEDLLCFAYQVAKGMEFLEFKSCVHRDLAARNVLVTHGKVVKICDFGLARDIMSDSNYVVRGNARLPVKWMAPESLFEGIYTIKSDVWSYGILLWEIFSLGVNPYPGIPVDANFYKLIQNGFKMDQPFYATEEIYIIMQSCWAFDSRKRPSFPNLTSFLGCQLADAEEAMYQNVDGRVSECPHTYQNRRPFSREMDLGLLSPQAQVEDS
Would you kindly list IC50 for each of these compounds?

In: Supply recorded IC50 for Cc1[nH]c(/C=C2\C(=O)Nc3cc(NC(=O)c4cccn(-c5ccc(F)cc5)c4=O)ccc32)c(C)c1C(=O)O here.
Out: 8.1 nM

In: State its IC50 for this compound: Cc1[nH]c(/C=C2\C(=O)Nc3cc(NC(=O)c4c[nH]cc(C)c4=O)ccc32)c(C)c1C(=O)O
Out: 194 nM

In: Look up and report measured IC50 for this entry: COc1ccc(C(=O)NC(=O)Nc2ccc3c(c2)NC(=O)/C3=C\c2[nH]c(C)cc2C)cc1
Out: > 1000 nM

In: Check the records and state IC50 for O=C1Nc2cccc(NC(=O)c3cccn(-c4ccc(F)cc4)c3=O)c2/C1=C/c1ccc[nH]1
Out: > 1000 nM

In: Respond only with IC50 recorded for O=C1Nc2cc(NC(=O)N3CCN(c4ccc(Cl)c(Cl)c4)C3=O)ccc2/C1=C/c1ccc[nH]1
Out: 501 nM

In: Determine its reported IC50: Cc1c[nH]cc(C(=O)Nc2ccc3c(c2)NC(=O)/C3=C\c2ccc[nH]2)c1=O
Out: 64.2 nM

In: Kindly indicate its recorded IC50. Item: COc1ccc(C(=O)NC(=O)Nc2ccc3c(c2)NC(=O)/C3=C\c2[nH]c(C)c(CCC(=O)O)c2C)cc1
Out: 2.7 nM

In: Output IC50 of COc1cc(F)c(C(=O)NC(=O)Nc2cc3c(cc2F)/C(=C/c2[nH]c(C)c(C(=O)O)c2C)C(=O)N3)c(F)c1
Out: 380 nM

In: // Input: CCN(CC)CCNC(=O)c1c(C)[nH]c(/C=C2\C(=O)Nc3cc(NC(=O)NC(=O)c4ccc(OC)cc4F)ccc32)c1C . Output its IC50 only.
Out: 4.4 nM

In: Respond only with IC50 recorded for COc1ccc(C(=O)NC(=O)Nc2ccc3c(c2)NC(=O)/C3=C\c2[nH]c(C)c(C(=O)N3CCN(C)CC3)c2C)c(F)c1
Out: 57.1 nM

In: // fetch IC50 given entry O=C1Nc2ccc(NC(=O)c3cccn(-c4ccc(F)cc4)c3=O)cc2/C1=C/c1ccc[nH]1
Out: > 1000 nM

In: Let me know recorded IC50 for O=C1Nc2cc(NC(=O)N3CCN(c4ccc(F)cc4)C3=O)ccc2/C1=C/c1ccc[nH]1 , thanks.
Out: 74.1 nM

In: Name the recorded IC50 of the item CN1CCN(C(=O)Nc2ccc3c(c2)NC(=O)/C3=C\c2ccc[nH]2)C1=O in your answer.
Out: 70.6 nM

In: Indicate the recorded IC50 value for this compound: O=C1Nc2cc(NC(=O)c3c[nH]cc(-c4cccc(Cl)c4)c3=O)ccc2/C1=C/c1ccc[nH]1
Out: 148 nM

In: Find the measured IC50 of Cc1cc(C)c(/C=C2\C(=O)Nc3cc(NC(=O)c4c[nH]cc(-c5ccc(F)cc5)c4=O)ccc32)[nH]1 and report it.
Out: 86.6 nM

In: // Input: O=C1Nc2cc(NC(=O)c3c[nH]cc(-c4ccccc4F)c3=O)ccc2/C1=C/c1ccc[nH]1 . Output its IC50 only.
Out: 100 nM

In: Look up IC50 of O=C1Nc2cc(NC(=O)c3c[nH]cc(-c4ccc(F)cc4)c3=O)ccc2/C1=C/c1ccc[nH]1 and report it.
Out: 38.1 nM

In: Please give measured IC50 of the following entry: O=C(NC(=O)c1ccc(Cl)c(Cl)c1)Nc1ccc2c(c1)NC(=O)/C2=C\c1ccc[nH]1
Out: > 1000 nM

In: Identify the reported IC50 for the following entry. O=C1Nc2cc(NC(=O)N3CCN(C4CC4)C3=O)ccc2/C1=C/c1ccc[nH]1
Out: 1800 nM

In: Dear colleague, please send me the reported IC50 for O=C1Nc2cc(NC(=O)c3cccn(-c4ccc(Cl)c(Cl)c4)c3=O)ccc2/C1=C/c1ccc[nH]1 when you can.
Out: 59.9 nM

In: Report measured IC50; entry is O=C(NC(=O)c1ccc(Cl)cc1)Nc1ccc2c(c1)NC(=O)/C2=C\c1ccc[nH]1
Out: 676 nM

In: Hello, please tell me recorded IC50 for this one: COc1ccc(C(=O)NC(=O)Nc2cc3c(cc2F)/C(=C/c2[nH]c(C)c(C(=O)O)c2C)C(=O)N3)c(F)c1
Out: 406 nM

In: Specify reported IC50 for the compound shown: COc1ccc(-c2c[nH]cc(C(=O)Nc3ccc4c(c3)NC(=O)/C4=C\c3[nH]c(C)c(C(=O)O)c3C)c2=O)cc1
Out: 24.6 nM

In: Identify measured IC50 associated with Cc1[nH]c(/C=C2\C(=O)Nc3cc(NC(=O)NC(=O)c4ccc(Cl)c(C(F)(F)F)c4)ccc32)c(C)c1C(=O)O
Out: 51.6 nM

In: Give the value of IC50 reported for the following: Cn1cccc(C(=O)Nc2ccc3c(c2)NC(=O)/C3=C\c2ccc[nH]2)c1=O
Out: 510 nM
